target: Nuclear receptor subfamily 1 group I member 3 (Homo sapiens) (UniProt Q14994); test: qHTS assay to identify small molecule antagonists of the constitutive androstane receptor (CAR) signaling pathway (AID 1224838); conditions: HepG2-CYP2B6-hCAR luciferase, CITCO-stimulated, 24 h; series mostly up to 92.4 µM;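 note: HepG2 cells stably expressing hCAR with CYP2B6 luciferase reporter stimulated by CITCO; nearly all actives have a fitted effect of over 40% in size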
Sequence (Q14994 whole entry, looked up): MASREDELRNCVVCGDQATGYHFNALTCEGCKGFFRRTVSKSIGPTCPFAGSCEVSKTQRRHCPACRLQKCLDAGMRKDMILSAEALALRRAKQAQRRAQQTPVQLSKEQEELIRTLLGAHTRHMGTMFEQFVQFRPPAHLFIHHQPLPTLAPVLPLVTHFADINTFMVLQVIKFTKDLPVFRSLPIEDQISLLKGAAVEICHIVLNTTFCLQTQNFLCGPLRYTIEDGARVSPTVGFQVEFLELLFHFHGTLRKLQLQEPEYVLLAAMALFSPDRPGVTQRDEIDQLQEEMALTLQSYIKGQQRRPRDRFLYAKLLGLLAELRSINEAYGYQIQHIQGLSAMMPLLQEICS
Inconclusive results are not listed. The source made the active and inactive calls. Calls come from the whole dose curve; as a rule, active = well fitted inhibition curve with a large enough effect in the repeat runs; inconclusive = weak or mixed curves, or effect the other way; inactive = no such curve, though single readings can be large or run the other way.
Can you answer with just one of these options? 1 (yes) (active), 0 (no) (inactive)

(Q) Could you please tell me the result logged for COc1ccc2nc(S(=O)Cc3ncc(C)c(OC)c3C)[nH]c2c1 (configuration not stated) in this assay?
(A) 0 (no)

(Q) Same lookup for "COc1cc(C(C)=O)ccc1OCCCN1CCC(c2noc3cc(F)ccc23)CC1" , please.
(A) 0 (no)

(Q) Same lookup for "O=C(O)c1ccc(O)cc1O" , please.
(A) 0 (no)

(Q) Same lookup for "COC(OC)OC" , please.
(A) 0 (no)

(Q) Same lookup for "CCN(Cc1cccc(S(=O)(=O)O)c1)c1ccc(C(=C2C=CC(=[N+](CC)Cc3cccc(S(=O)(=O)O)c3)C=C2)c2ccccc2S(=O)(=O)[O-])cc1" , please.
(A) 1 (yes)

(Q) Same lookup for "CCN(CC)CCOc1ccccc1C(=O)CCc1ccccc1" , please.
(A) 0 (no)

(Q) Same lookup for "CCCCC[C@H](O)/C=C/[C@H]1[C@H](O)CC(=O)[C@@H]1C/C=C\CCCC(=O)O" , please.
(A) 0 (no)

(Q) Same lookup for "CCOCCC(=O)OCC" , please.
(A) 0 (no)

Continuing:
(Q) Could you please tell me the result logged for "O=C(O)CO" in this assay?
(A) 0 (no)

(Q) Same lookup for "CC(=O)N[C@@H](Cc1ccc(O)cc1)C(=O)O" , please.
(A) 0 (no)

(Q) Same lookup for "CCc1ccc(C)cc1" , please.
(A) 0 (no)

(Q) Same lookup for "CCCCOCCOC(=O)c1cccnc1" , please.
(A) 0 (no)

(Q) Same lookup for CCC1CCC(CCC(=O)O)C1 (configuration not stated) , please.
(A) 0 (no)

(Q) Same lookup for "Cc1c[nH]c2ccccc12" , please.
(A) 0 (no)

---

biological target: Nuclear receptor ROR-gamma (Homo sapiens) (UniProt P51449); assay: qHTS assay to identify small molecule antagonists of the retinoid-related orphan receptor gamma (ROR-gamma) signaling pathway (AID 1159521;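 note: CHO cells with doxycycline inducible ROR-gamma driving an RORE luciferase reporter; top concentration of the series differs between compounds; nearly all actives have a fitted effect of over 50% in size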); conditions: Tet-on RORgamma CHO cells, RORE-luciferase, 16 h; series mostly up to 92.4 µM
Results filed as inconclusive are left out. The source made the active and inactive calls. Calls follow the shape of the dose curve; as a rule, active = well fitted inhibition curve with a large enough effect in the repeat runs; inconclusive = weak or mixed curves, or effect the other way; inactive = no such curve, though single readings can be large or run the other way.
Can you answer with just one of these options? Y for active, N for inactive

(Q) Could you please tell me the result logged for "Nc1cccc2c(N)cccc12" in this assay?
(A) N

(Q) Same lookup for "O=C1OC(=O)c2c(Br)c(Br)c(Br)c(Br)c21" , please.
(A) N

(Q) Same lookup for "CCN(CC)CCOc1ccccc1C(=O)CCc1ccccc1" , please.
(A) N

(Q) Same lookup for "COc1ccc(-c2cc(=S)ss2)cc1" , please.
(A) N

(Q) Same lookup for "Cc1ccccc1S(N)(=O)=O" , please.
(A) N

(Q) Same lookup for "CC(=O)OCCC1CCCCC1" , please.
(A) N

(Q) Same lookup for "O=C(C(=O)c1ccco1)c1ccco1" , please.
(A) N

(Q) Same lookup for "CC[C@H]1OC(=O)[C@H](C)[C@@H](O[C@H]2C[C@@](C)(OC)[C@@H](O)[C@H](C)O2)[C@H](C)[C@@H](O[C@@H]2O[C@H](C)C[C@H](N(C)C)[C@H]2O)[C@](C)(O)C[C@@H](C)/C(=N\OCOCCOC)[C@H](C)[C@@H](O)[C@]1(C)O" , please.
(A) N

(Q) Same lookup for "O=P(O)(O)Oc1ccccc1" , please.
(A) N

(Q) Same lookup for "COc1ccc(CCN(C)CCCN2CCc3cc(OC)c(OC)cc3CC2=O)cc1OC" , please.
(A) N

Continuing:
(Q) Could you please tell me the result logged for "C[C@@H]1C[C@H]2[C@@H]3CCC4=CC(=O)C=C[C@]4(C)[C@@]3(F)[C@@H](O)C[C@]2(C)[C@@]1(O)C(=O)COP(=O)(O)O" in this assay?
(A) N

(Q) Same lookup for "CCCCCCCCCCCCCOS(=O)(=O)O" , please.
(A) N

(Q) Same lookup for COc1ccc(-n2nc(C(F)F)cc2-c2ccc(S(C)=O)cc2)cc1 (stereo not drawn) , please.
(A) N

(Q) Same lookup for "CC(C)c1ccc(C#N)cc1" , please.
(A) N

(Q) Same lookup for "CC1=CC[C@@]23C[C@@H]1C(C)(C)[C@@H]2CC[C@H]3C" , please.
(A) N

(Q) Same lookup for "CCN(CC)CC(=O)Nc1c(C)cccc1C(=O)OC" , please.
(A) N

(Q) Same lookup for "CC(C)(O)CCc1ccccc1" , please.
(A) N

(Q) Same lookup for "CCOC(=O)N1CCC(Nc2ccc(Cl)cc2N)CC1" , please.
(A) N
